Target: T1, HLTF HIRAN domain (UniProt Q14527 51-171)
T1 sequence: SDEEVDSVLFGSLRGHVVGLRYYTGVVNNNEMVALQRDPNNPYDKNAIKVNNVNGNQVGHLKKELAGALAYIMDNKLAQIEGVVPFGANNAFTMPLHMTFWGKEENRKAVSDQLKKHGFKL
Assay: competition
Checkbox rule: IC50 lower than 7 µM = YES; IC50 not lower than 7 µM = NO.

As a guide, the following entries are already answered.
[
  {
    "binder": "TGT (ssDNA)",
    "label-class": "NO"
  },
  {
    "binder": "TTTG (ssDNA)",
    "label-class": "YES"
  },
  {
    "binder": "TTTTT (ssDNA) [T5]",
    "label-class": "YES"
  },
  {
    "binder": "CAG (ssDNA)",
    "label-class": "NO"
  },
  {
    "binder": "CTG (ssDNA)",
    "label-class": "YES"
  }
]

[in] Does this binder meet the criterion IC50 < 7 µM? GTTG (ssDNA)
[out] YES

[in] Does this binder meet the criterion IC50 < 7 µM? CTT (ssDNA)
[out] NO
